# measurement description: endothelial E-selectin expression blockers – imaging, HUVEC, immunofluorescence, MLSMR starter and 10KST1 sets, primary screen (AID 487);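 note: 100% = median nuclei count of all wells on the same plate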
# details: HUVEC TNFalpha-induced E-selectin immunofluorescence imaging, at 2 µM; measured here: cell number, toxicity
Please respond with reported nuclei count for every item in the list.
Give bare numbers, in %.

Solved entries (count: 5):
1. O=C(COc1ccccc1F)NC1CC1 :: 100
2. CC(C)c1nnc(NC(=O)c2cnccn2)s1 :: 105
3. CCCCCCc1ccc(-c2ncc(N)cn2)cc1 :: 109
4. Cc1c(C(=O)OC2CCC(C)CC2)[nH]c2c1C(=O)CCC2 (stereo not given) :: 118
5. O=C(O)C1CCCCC1C(=O)NCCc1ccccc1 (stereo not given) :: 103

Batch request: nuclei count per item, same order as input.
1. CCOc1ccccc1NC(=O)CSc1nnc(Cc2cccn2C)n1-c1ccc(F)cc1
2. CC(=O)C1=C(C)Nc2ncnn2C1c1cccc(OCc2ccccc2)c1 (stereo not given)
3. Cn1nnnc1SCc1cn2cccnc2n1
4. O=C(CCCC(=O)OCC(=O)NC1CCCC1)Nc1ccccn1
5. COCCn1nnnc1CN(Cc1cccnc1)Cc1cc2cc(OC)ccc2[nH]c1=O
6. O=C(NCc1cccs1)C1CC(=O)N(c2ccccc2)C1 (stereo not given)
7. Cc1ccc(N2C(=O)c3ccccc3C2Nc2cccnc2)nc1 (stereo not given)

Reply:
109
122
117
179
107
84
138

Return reported nuclei count values for all items listed beneath this line.
1. CCCSc1nc2c(cnn2-c2ccc(C)cc2)c(=O)[nH]1
2. COC(=O)C1CCN(C(=O)c2sc3nc(-c4ccc(F)cc4)cn3c2C)CC1

Reply:
1. 113
2. 120

Please look at the items below and tell me nuclei count for each one, in order.
1. Cc1cc(=O)oc2c1ccc1oc(/C(=N/O)c3ccccc3)c(C)c12
2. CCNc1nc(N2CCOCC2)nc(N(c2ccccc2)c2ccccc2)n1
3. Cc1nc2ccccc2c2oc(C(=O)NCC3COc4ccccc4O3)cc12 (stereo not given)
4. COc1ccc(C2C3=C(OC(C)=O)c4ccccc4C3=Nc3c2c(=O)n(C)c(=O)n3C)cc1 (stereo not given)
5. CC(C)OCCCNC(=O)c1cc2c(s1)CS(=O)(=O)C2
6. Cc1cc(OCC(=O)N2CCCC2)cc(C)c1Cl
7. COc1cccc(-c2noc(-c3cccs3)n2)c1
8. Cc1ccc(Cl)cc1N1CCN(C(=O)CN2C(=O)c3cccc4cccc2c34)CC1

Reply:
[110, 101, 99, 116, 103, 99.5, 131, 101]

I'm hoping you can list nuclei count for every compound here, please.
1. CCCC(=O)Nc1nnc(Sc2ccc(N(C)C)cc2)s1
2. CCn1nc(C)c(NC(=O)c2cc(Br)ccc2Cl)c1C
3. COc1ccc(N2CCN(C(=O)Cc3ccc(-n4c(=O)[nH]c5ccccc5c4=O)cc3)CC2)cc1
4. COc1ccc(-n2ncc3c(N4CCC(C)CC4)ncnc32)cc1
5. COc1ccc(S(=O)(=O)N(C)C2CCN(C)CC2)cc1
6. COC(=O)c1cc2oc(C)cc2n1CC(=O)N(C)c1ccccc1
7. O=C1CCn2nc(-c3ccc(Cl)cc3)cc2N1
8. CCN(CC)c1ccc(-c2c(C#N)c(N)nc(OC)c2C#N)cc1

Reply:
1: 97.6; 2: 115; 3: 103; 4: 110; 5: 114; 6: 115; 7: 118; 8: 113

Parameter requested: nuclei count. Apply to each item below.
1. CCOC(=O)CSc1nc2cccnc2n1-c1ccc(F)cc1
2. O=C(NCN1CCCCC1)c1cccnc1
3. CCc1ccc(N2CC(C(=O)OCC(=O)Nc3cc(C)on3)CC2=O)cc1 (stereo not given)
4. O=C(CSc1nnc(-c2ccccc2Br)o1)Nc1cccc2ccccc12
5. COc1ccc(CCNc2nc(N3CCOCC3)nc(N3CCOCC3)n2)cc1OC

Reply:
1: 111; 2: 92.8; 3: 92.3; 4: 65.3; 5: 91.3

Need nuclei count for each of these compounds.
1. COC(=O)CN(c1ccc(OC)cc1)S(=O)(=O)c1ccc(OC)c(OC)c1
2. CC(Oc1ccccc1)C(=O)NC1CC(C)(C)NC(C)(C)C1 (stereo not given)

Reply:
1. 139
2. 102

List reported nuclei count for each of these compounds:
1. CCOC(=O)c1c(-c2ccc(C)o2)csc1NC(=O)COC(=O)c1cccs1
2. Clc1ccc2nc(N3CCCCC3)[nH]c2c1
3. CCN1CCN(Cc2nc3c(c(=O)[nH]c(=O)n3C)n2Cc2ccccc2Cl)CC1

Reply:
1: 113; 2: 102; 3: 95.5
